test system: Geotrichum candidum; assay: Inhibition of DHPS in Geotrichum candidum assessed as antifungal activity by measuring inhibition zone at 5 mg/mL incubated for 48 hrs by disk diffusion method
measure: inhibition zone (IZ) (mm)
Numbers only, in mm.

Reference set, count: 2
1) C=CCN/C(S[C@@H]1O[C@H](COC(C)=O)[C@H](OC(C)=O)[C@H](OC(C)=O)[C@H]1OC(C)=O)=C(/C#N)C(=O)Nc1ccc(S(=O)(=O)Nc2onc(C)c2C)cc1 = 20.2
2) CN/C(S[C@@H]1O[C@H](COC(C)=O)[C@H](OC(C)=O)[C@H](OC(C)=O)[C@H]1OC(C)=O)=C(/C#N)C(=O)Nc1ccc(S(=O)(=O)Nc2onc(C)c2C)cc1 = 16.9

With those in mind, consider the next molecule.
Could you share which inhibition zone (IZ) value was measured for `CCN/C(S)=C(/C#N)C(=O)Nc1ccc(S(=O)(=O)Nc2onc(C)c2C)cc1` ? 17.1

These data points were gathered from ChEMBL document CHEMBL4627352.
